# target_or_test_system: EGFR (L858R/T790M/C797S) (Homo sapiens, UniProt P00533, C797S/L858R/T790M)
# Sequence (P00533 25-1210 T790M/C797S/L858R): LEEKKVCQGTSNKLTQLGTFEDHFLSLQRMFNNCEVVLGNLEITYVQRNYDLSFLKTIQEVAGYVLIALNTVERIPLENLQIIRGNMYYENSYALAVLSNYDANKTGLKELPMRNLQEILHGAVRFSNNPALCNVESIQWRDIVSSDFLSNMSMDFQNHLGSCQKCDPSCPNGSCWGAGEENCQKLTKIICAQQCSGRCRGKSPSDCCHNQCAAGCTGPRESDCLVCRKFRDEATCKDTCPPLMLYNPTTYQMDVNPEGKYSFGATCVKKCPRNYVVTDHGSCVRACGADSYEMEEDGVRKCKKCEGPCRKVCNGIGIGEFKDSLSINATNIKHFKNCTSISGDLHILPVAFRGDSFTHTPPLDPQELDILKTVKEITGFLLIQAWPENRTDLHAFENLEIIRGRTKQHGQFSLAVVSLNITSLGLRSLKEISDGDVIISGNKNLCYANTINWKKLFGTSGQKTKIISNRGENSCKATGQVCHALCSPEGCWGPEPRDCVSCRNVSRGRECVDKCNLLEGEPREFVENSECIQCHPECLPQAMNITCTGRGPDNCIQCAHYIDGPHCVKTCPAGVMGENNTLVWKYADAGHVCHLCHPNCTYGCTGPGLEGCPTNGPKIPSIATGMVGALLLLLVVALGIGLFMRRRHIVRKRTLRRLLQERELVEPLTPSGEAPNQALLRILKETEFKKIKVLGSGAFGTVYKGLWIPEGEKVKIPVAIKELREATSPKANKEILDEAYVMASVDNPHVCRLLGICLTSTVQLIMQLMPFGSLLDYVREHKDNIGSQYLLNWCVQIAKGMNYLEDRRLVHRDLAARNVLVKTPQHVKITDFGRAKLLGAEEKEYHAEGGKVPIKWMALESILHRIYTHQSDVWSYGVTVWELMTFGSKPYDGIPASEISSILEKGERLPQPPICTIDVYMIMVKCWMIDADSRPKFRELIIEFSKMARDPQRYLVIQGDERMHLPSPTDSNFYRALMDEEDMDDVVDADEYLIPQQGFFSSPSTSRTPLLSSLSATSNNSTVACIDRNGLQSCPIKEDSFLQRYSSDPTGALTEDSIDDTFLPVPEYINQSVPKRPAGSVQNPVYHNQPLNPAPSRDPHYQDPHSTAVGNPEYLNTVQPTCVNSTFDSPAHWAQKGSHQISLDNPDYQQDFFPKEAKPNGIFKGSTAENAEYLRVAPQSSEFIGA
# test_summary: Cell degradation HTRF assay, BaF3-LTC cells
# Assay type: cell-based
# Design: expressed in transfected cells; host or cells: BaF3-LTC
# settings: 16 h treatment, maximum percentage of degradation
# Protocol: Cell Degradation of Example 1-28 BaF3-LTC (L858R/T790M/C797S) and BaF3-DTC (Del19/T790M/C797S) cells are treated with compounds diluted in 0.2% DMSO cell culture medium and incubate for 16 h, 37° C., 5% CO2. The final concentration of compounds in all assay is start with 10 uM, 4-fold dilution, total 8 doses were included. […] High control=Cell group with added DMSO and without compound, indicating microplate readings without EGFR degradation; […]
observed_property: Dmax (%)

| compound | Dmax, % |
| --- | --- |
| CCc1cc(Nc2ncc(Br)c(Nc3cnc4ccccc4c3P(C)(C)=O)n2)c(OC)cc1N1CCC(N2CCN(CCC3CCN(c4cc(F)c(C5CCC(=O)NC5=O)c(F)c4)CC3)CC2)CC1 (stereo not shown) | 90.7 |
| CCc1cc(Nc2ncc(Br)c(Nc3cnc4cnccc4c3P(C)(C)=O)n2)c(OC)cc1N1CCC(N2CCN(CCc3cc(F)c(C4CCC(=O)NC4=O)c(F)c3)CC2)CC1 (stereo not shown) | 81.9 |
| CCc1cc(Nc2ncc(Br)c(Nc3cnc4ccccc4c3P(C)(C)=O)n2)c(OC)cc1N1CCC(N2CCN(CCc3ccc(C4CCC(=O)NC4=O)c(F)c3)CC2)CC1 (stereo not shown) | 85 |
| CCc1cc(Nc2ncc(Br)c(Nc3cnc4ccccc4c3P(C)(C)=O)n2)c(OC)cc1N1CCC(N2CCN(CCc3ccc4c(c3)C3(CC3)C(=O)N4C3CCC(=O)NC3=O)CC2)CC1 (stereo not shown) | 89.6 |
| CCc1cc(Nc2ncc(Br)c(Nc3cnc4ccccc4c3P(C)(C)=O)n2)c(OC)cc1N1CCC(N2CCN(CCc3cccc4c3cnn4C3CCC(=O)NC3=O)CC2)CC1 (stereo not shown) | 89.1 |
| CCc1cc(Nc2ncc(Br)c(Nc3cnc4ccccc4c3P(C)(C)=O)n2)c(OC)cc1N1CCC(N2CCN(C(=O)C3CN(c4ccc5c(c4)CN(C4CCC(=O)NC4=O)C5=O)C3)CC2)CC1 (stereo not shown) | 89.7 |
| CCc1cc(Nc2ncc(Br)c(Nc3cnc4cccnc4c3P(C)(C)=O)n2)c(OC)cc1N1CCC(N2CCN(CCc3cc(F)c(C4CCC(=O)NC4=O)c(F)c3)CC2)CC1 (stereo not shown) | 82.7 |
| CCc1cc(Nc2ncc(Br)c(Nc3cnc4ccccc4c3P(C)(C)=O)n2)c(OC)cc1N1CCC(N2CCN(C(=O)C3CN(c4ccc5c(cnn5C5CCC(=O)NC5=O)c4)C3)CC2)CC1 (stereo not shown) | 85 |
| CCc1cc(Nc2ncc(Br)c(Nc3cnc4ccccc4c3P(C)(C)=O)n2)c(OC)cc1N1CCC(N2CCN(CC3CN(c4cc(F)c(C5CCC(=O)NC5=O)c(F)c4)C3)CC2)CC1 (stereo not shown) | 89.4 |
| CCc1cc(Nc2ncc(Br)c(Nc3cnc4ccccc4c3P(C)(C)=O)n2)c(OC)cc1N1CCC(N2CCN(C[C@H]3CCN(c4ccc5c(c4)CN(C4CCC(=O)NC4=O)C5=O)C3)CC2)CC1 (stereo partly shown) | 90.5 |
